Test Summary: NCI Yeast Anticancer Drug Screen. Data for the mlh1 rad18 strain (AID 175)
Condition Label: S. cerevisiae mlh1 rad18 strain growth inhibition; at 50.0 µM
About 79,000 compounds went through this panel and 15% of them were active in at least one assay; those are over-represented in the sample as a whole. Calls of active or inactive are those of the source. Rule as the data show it: active = growth inhibition above about 70%; inactive = the rest.
// one of 1 = active, 0 = inactive, no free text

Query: Recorded call for [Cl][Sn]([CH2][CH2][Sn]([Cl])([c]1ccccc1)[c]1ccccc1)([c]1ccccc1)[c]1ccccc1 ?
Response: 1

Query: Recorded call for O=[N+]([O-])c1ccccc1NC1CCN(CCCC2(c3ccc(F)cc3)OCCO2)CC1 ?
Response: 1

Query: Recorded call for C[n+]1c(-c2cccc(OCCCCCCCCCCOc3cccc(-c4c5cc(N)ccc5c5ccc(N)cc5[n+]4C)c3)c2)c2cc(N)ccc2c2ccc(N)cc21 ?
Response: 1

Query: Recorded call for CCC1(C)C(C#N)(C#N)C1(C#N)C#N ?
Response: 1

Query: Recorded call for C=C1C(=O)O[C@H]2C3C(=C(C)CC[C@@H]12)C(=O)[C@@H]1OC31C (stereo not given in full) ?
Response: 0

Query: Recorded call for O=C1c2cccc(S(=O)(=O)O)c2C(=O)c2cccc([N+](=O)[O-])c21 ?
Response: 0

Query: Recorded call for CC(C)(C)c1ccc(C(=O)C[n+]2ccc(Cl)c3ccc(Cl)cc32)cc1 ?
Response: 1

Query: Recorded call for Oc1cc(C(c2ccccc2)c2ccccc2)c2ccccc2c1O ?
Response: 1

Query: Recorded call for O=C(O)C(Br)C(Br)C(=O)Nc1ccc(Cl)c(Cl)c1 (stereo not given) ?
Response: 1

Query: Recorded call for N#Cc1ccccc1NC1OCC(O)C(O)C1O (stereo not given) ?
Response: 0

###

Each entry below carries its recorded growth inhibition.
Test Summary: NCI Yeast Anticancer Drug Screen. Data for the mlh1 rad18 strain (AID 175)
Condition Label: S. cerevisiae mlh1 rad18 strain growth inhibition; at 5.0 µM (retest, dose inferred, filed as 0.5); active compounds read high
This is part of a sample that, as a whole, favours compounds with a hit. Of some 79,000 tested, about 15% had one in any assay.
Provide the reading as a plain figure in %.

C[N+](C)(C)CCN(Cc1cccs1)c1ccccn1 :: -3
CCC(=NCCCCCCN=C(CC)c1cc(C)cc([N+](=O)[O-])c1O)c1cc(C)cc([N+](=O)[O-])c1O.[Fe] :: 11
N#CCCN(C(=S)Nc1cccc(C(F)(F)F)c1)C1CCCCC1 :: 1
CSc1nc2c(c(=O)[nH]1)C1C=C(C)CCC1C(C)(C)C2 (configuration not stated) :: -10

Query: Entry under review: O=C(NCCCCC(NC(=O)OCc1ccccc1)C(=O)Nc1ccc(Nc2ccc(NC(=O)C(CCCCNC(=O)OCc3ccccc3)NC(=O)OCc3ccccc3)cc2)cc1)OCc1ccccc1 (configuration not stated) . Reported growth inhibition?
Response: -1

Query: Entry under review: Oc1ccc2cc(Br)ccc2c1O . Reported growth inhibition?
Response: -7

Query: Entry under review: O=C(Nc1ccccc1Cl)c1cccnc1 . Reported growth inhibition?
Response: -112

Query: Entry under review: CC(=O)Nc1cccc(C(=O)O)c1 . Reported growth inhibition?
Response: 1

Query: Entry under review: Cc1c[nH]c2c(O)cc3c(c12)[C@H](CCl)CN3C(=O)c1cc2cc(NC(=O)Nc3ccc4[nH]c(C(=O)N5C[C@@H](CCl)c6c5cc(O)c5[nH]cc(C)c65)cc4c3)ccc2[nH]1 . Reported growth inhibition?
Response: 78

Query: Entry under review: CC(C)=NNc1ncnc2nc[nH]c12 . Reported growth inhibition?
Response: -14

Query: Entry under review: CC(C)CCCC(C)C1CCC2C3CC=C4OC(=O)CCC4(C)C3CCC12C (configuration not stated) . Reported growth inhibition?
Response: -1

Each recorded value in this set is attributed to PubChem BioAssay (NCI).
